Protocol text: yeast display, Sf9 membrane polyspecificity reagent, FACS + sequencing; frameworks hold sequencing errors
Measurement kind: polyreactivity (PSR sort gate)

QVQLVESGGGLVQAGGSLRLSCAASGIIFRYNTMGWYRQEPGKERELVAAISWSGDSTYYADSVKGRFTISRDNAKNTVYLQMNSLKPEDTAVYYCARSQFSRSPSRMGYWGEGTQVTVSS : high polyreactivity
QVQLVESGGGLVQAGGSLRLSCAASGRIFGKYAMGWYRQAPRKERELVARISFSGGTTYYADSVKGRFTISRDNAKNTVYLQMKSLKPEDTAVYYGNARRVWSQRWAYDSWGQGTQVTVSS : high polyreactivity
QVQLVESGGGLVQAGGSLRLSCAASGYISNANAMGCYRQAPGKERELVAAITWSGGSTYADSVKGRFTITRDNAKNTVYLQMNSLKPEDTAVYYCAVGPYRVAKYNYWGQGTQVTVSS : low polyreactivity
QVQLVESGGGLVQAGGSLRLSCAASGRIFGPYAMGWYRQAPGKDRELVAAISASGGRTYDADSVKGRFTISRDNAKNTVYLQMNSLKPEDTAVYYCARRYWHSGWIFDYWGQGTQVTVSS : high polyreactivity
QVQLVESAAGLVQAGGCLRLSCAASGRIFGYYAMGGYRKAPGKERELVAAITSGGGTYYADSVKGRFTNSRDNAKNTVYLQMNSLKPEDTAVYFCAADDYFHDDYCGQGTQVTVSS : high polyreactivity
QVQLVESGGGLVQAGGSLRLSCAASGSIFPHNTMGWYRQAPGNERELVAAISRSGGSTYYADSVKGRFTISRDNAKNTVYLQMNSLKPEDTAVYYCARDSYDVGHQVVSDERLYDYWGQGTQVTVSS : low polyreactivity
QVQLVESGGGLVQAGGSLRLSCAASGSTFYRNGMGWYRQAPGKERELVAGIDRSGGSTYYADSVKGRFTISRDNAKNTVYLQMNSLKPEDTAVYYCAAQNGYYPQHDYWGQGTQVTVSS : high polyreactivity

---

Protocol text: yeast display, Sf9 membrane polyspecificity reagent, FACS + sequencing; frameworks hold sequencing errors
Measurement kind: polyreactivity (PSR sort gate)

QVQLVESGGGLVQAGGSLRLSCAASGSRNAMGWYRQAPGKESEFVAAITWNGGSTYYADSVKGRFTISRDNAKNTVYLQMNSLKPEDTAVYYCNKREVFIYGTTYDYWRQGTQVTVSS : low polyreactivity
QVQHVESGGGLVQAGGSLRLSCAASGLTFYRYAMGWNRQAPGKERELVAAITSGGSTYYADSVKGRFTISRDNAKNTVYLQMNSLKPEDTAVYYCARQYGYQPERYGYWGQGTQVTVSS : low polyreactivity
QVQLVESGGGLVQAGGSLRISCAASGRIFFIKAMGWYRQAPGKERELVAAIRRDTRTYYADSVKGRFTISRDNAKNTVYLQMNSLKPEDTAVYYCAADDPWHYDFDYWGQGTQVTVSS : low polyreactivity

---

Protocol text: yeast display, Sf9 membrane polyspecificity reagent, FACS + sequencing; frameworks hold sequencing errors
Measurement kind: polyreactivity (PSR sort gate)

QVQLVESGGGLVQAGGSLRLSCAASGFTFSQYAMGWYRQAPGKERELDAAISWNGGSTYYADSVKGRFTISRDNAKNTVYLQMNSLKPEDTAVYYCAAYGYYTKVTKYDYWGQGTQVTVSS : high polyreactivity
QVQLVESGGRLVQAGGSLRLSCAASGRTFTRNAMGWYRQAPGKERELVAAISWSGGSTYYADSVKGRFTISRDNAKNTVYLQMNSLKPEDTAVYYCAARIWYYNYWGQGTQVTVSS : high polyreactivity
QVQLVESGGGLVQAGGRLRLSCAASGRTFYVYTMGWYRQAPGPERELVAAIPSGGSTNYADSVKGRFTISRDNAKKTVYLQMNSLKPEDTAVYYCAARDSTVFKRYYYWGQGTQVTVSS : high polyreactivity
QVQLVESGGGLDQAGGSLRLSCAASGRTFWAPYTMGWYRQAPWKERELVAAISKSTTRTYYADSVKGRFTISRDNAKNTVYLQMTSLKPEDTAVYYCAVDSLYASRWVDYWGQGTQVTVSS : high polyreactivity
QVQLVESGGGLVQAGGSLRLSCAASGSIIGNYAMGWYREAPGKERELVAAISWSGGSTYYADSVKGRFTISRDNAKNTVYLQMNSLKPEDTAVYYCAAVDYYRYRSDYDYWGQGTQVTVSS : low polyreactivity
QVQLVESGGGLVQAGGSLRLSCAASGRIFGVYAMGWYRQAPGKERELVADISWSGSGTYADSVKGRFTISRDNAKNTVYLQMNSLKPEDTAVYYCNVDPAQIHAGYVGYDYWGQGTQVTVSS : low polyreactivity
QVQLVESGGGLVQAGGSLRLSCAASGYTFHYNTMGGYRQAPGKERELVATISDGGSTNYADSVKGRFTISRDNAKNTVYLQMNSLKPEDTAVYYCAALYQQFQSALVPYFDVIEEDYWGQGTQVTVSS : low polyreactivity
QVQLVESGGGLVQAGGRLRLSCAASGFTFNVNALGGYRPAPGKERELVATITWSDGSTRYADSVKGRFTISRDNAKNTVYLQMNSLKPEDTAVYYCATRWSYPYSYRYYYWGQGTQVTVSS : low polyreactivity
QVQLVESGGRLVQAGGSLRLSCAASGFIFGTYAMGWYRQAPGKEREFVAAITRSGSSTYYADSVKGRFTISRDNAKNTVYLQMNSLKPEDTAVYYCAADLTRGRFRYYYWGQGTQVTVSS : high polyreactivity

---

Protocol text: yeast display, Sf9 membrane polyspecificity reagent, FACS + sequencing; frameworks hold sequencing errors
Measurement kind: polyreactivity (PSR sort gate)

QVQLVESGGGLVQAGGSLRLSCAASGFNFNKNAMGWYIQAPGKERELVASITASGTTTYADSVKGRFTISRDNAKNTVYLQMNSLKPEDTAVYYCAVRTRIWGFYYWGQGTQVTVSS : high polyreactivity
QVQLVESGGGLVQAGGSLRLSCAASGRIFAYYAMGWYRQAPGKERELVAAINSNGGSTYYADSVKGRFTISRDNAKNTVYLQLNSLKPEDTAVYYCAAGARYKMGYWGQGTQVTVSS : high polyreactivity
QVQLVESGGGLVQAGGSLRLSCAASGFTFRYYAMGWYRQAPGKEREFVAAISWDGGITYYADSVKGRFTISRDNAKNTVYLQMNSLKPEDTAVYYCAADVIWESDYWGQGTQVTVSS : high polyreactivity
QDQLVESGGGLVQAGGSLRLSCAASGSIFSTYAMGWYRQAPGKERELVAAIDGSGGSTYADSVKGRFTISRDNAKNTVYLQMNSLKPEDTAVYYCAVDSFLVYSAVRPYDYWGQGTQVTVSS : low polyreactivity
QVQLVESGGGLVQAGGSLRLSCAATGSTFIFYAMGWYRQAPGKERELVAAISWSGGSTYYADSVKGRFTISRDNAKNTVYLQMNSLKPEDTAVYYCNARWSSWYIHSHYYYWGQGTQVTVSS : high polyreactivity
QVQLVESGGGLVQAGGSLRLSCAASRRTSRYYAMGWYRQAPGKETEFVAAINFSGGRTYYADSVKGRFTISRDNAKNSVYLQMNSLKPEDTAVYYCATQDYRYRYSRFGYWGQGTLVTVSS : high polyreactivity
QVQLVESGGGLVQAGGSLRLSCAASGRTFKTYVMGWYRQAPGKERELVAGITSGGGSTYYADSVKGRFTISRDNAKITVYLQMNSLKPEDTAVYYCAAVSKDGFWVSYYYWGQGTQVTVSS : high polyreactivity
QVQLVETGRGLLQAGGTLLLTCAASGSIYTYAMGWYKQAHGTQRELVAAISRSGGRTYYADSVKGRFTNSRDNAKNTVYLQMNSLKPEDTAVYYCAALLLKDYDYLGQGTQVTVSS : low polyreactivity

---

Protocol text: yeast display, Sf9 membrane polyspecificity reagent, FACS + sequencing; frameworks hold sequencing errors
Measurement kind: polyreactivity (PSR sort gate)

QVQLVESGGGLVQAGGSLRLSCAASGSTYYYNAMGSYRQAPGKDRELVARISRSGGSTYADSVKGRFTISRDNAKNTVYLQMNSLKPEDTAVYYCNADAYGTPEFTSYAVRYDYWGQGTQVTVSS : low polyreactivity
QVQLVESGGGLVQAGGSLRLSCAASGRTSSRYVMGWYRQAPGKERELVASLSRSGGSTSYADSVKGRFTISRDNAKNTVYLQMISLKPEDTAVDYCYARTSFQRGGGFWGQGTQVTVSS : high polyreactivity
QVQLVESGGALVQAGGSLRLSCAASGSIFVPYTMGWYRQAPGKERELVSSISYSGGTTYYADSVKGRFTISRDYAKNTVYLQMNSLKPEDTAVYYCAADWDESYSYRRYSHYDYWGQGTQVTVSS : low polyreactivity
QVQLVESGGGLVQAGGSLRLSCAASGSIVEYYAMGWYRQAPGKERELVAAISTGGSTYYADSVKGRFTISRDNAKNTVYLQMNSLKPEDTAVYYCAAEDYHPGADTVGTGYDYWGQGTQVTVSS : low polyreactivity
QFQLVESGGGLVQAGGSLRLSCAASGLTFGYYAMGWYRQAPGKERELVAAITSRGGSTYYADSVKRRFTISRDNAKNTVYLQMNSLKPEDTAVYYCAARYAEYGSWGQGTQVTVSS : high polyreactivity
